Attribution: ChEMBL document CHEMBL1138916

# Test system: HT-29
# ASSAY NAME: Antiproliferative activity against human HT29 cell line
# Assay type: functional, cell-based
READOUT: IC50 (µM)
Could you give me the number in µM? Just the number is fine.

Recorded IC50 for CN(CCOc1ccc(CC2SC(=O)NC2=O)cc1)C(=O)CCCCC1CCSS1 (stereo not drawn) on HT-29 was 10

Summary line: CN(CCOc1ccc(CC2SC(=O)NC2=O)cc1)C(=O)CCCCC(CCSC(=O)CN)SC(=O)CN.Cl.Cl (stereo not drawn) , HT-29, reported IC50 = 8

Bench note, HT-29: entry CN(CCOc1ccc(CC2SC(=O)NC2=O)cc1)c1ccccn1 (stereo not drawn) [ROSIGLITAZONE] , its IC50 = 45

----------
Record form. Attribute: IC50. Fill in for each entry.
# System: MCF7
# ASSAY NAME: Antiproliferative activity against human MCF7 cell line
# Type: functional, cell-based
Respond numerically; units are µM and should not be typed.

The observed IC50 for CN(CCOc1ccc(CC2SC(=O)NC2=O)cc1)C(=O)CCCCC1CCSS1 (stereo not drawn) when tested with MCF7 stands at 15

The reported IC50 value, MCF7, for CN(CCOc1ccc(CC2SC(=O)NC2=O)cc1)C(=O)CCCCC(CCSC(=O)CN)SC(=O)CN.Cl.Cl (stereo not drawn) reads 25

----------
Please provide measured log10(EC50) for the entries that follow.
# TARGET SYSTEM: Peroxisome proliferator-activated receptor gamma (Homo sapiens)
# Sequence (P37231 whole entry): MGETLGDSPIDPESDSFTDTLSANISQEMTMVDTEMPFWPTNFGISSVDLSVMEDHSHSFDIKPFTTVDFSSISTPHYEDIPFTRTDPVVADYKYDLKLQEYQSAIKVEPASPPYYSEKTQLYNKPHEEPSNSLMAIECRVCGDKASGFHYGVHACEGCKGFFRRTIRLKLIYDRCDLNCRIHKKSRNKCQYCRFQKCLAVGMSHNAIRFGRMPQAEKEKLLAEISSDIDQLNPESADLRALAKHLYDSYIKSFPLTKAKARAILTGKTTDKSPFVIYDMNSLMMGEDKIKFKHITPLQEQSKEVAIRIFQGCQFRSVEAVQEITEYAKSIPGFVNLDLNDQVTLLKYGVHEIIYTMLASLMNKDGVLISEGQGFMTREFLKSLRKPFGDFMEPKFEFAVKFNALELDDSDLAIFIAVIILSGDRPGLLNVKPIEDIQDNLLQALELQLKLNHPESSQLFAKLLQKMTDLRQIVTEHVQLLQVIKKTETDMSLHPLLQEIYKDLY
Kindly note that the scale is log10 and the underlying EC50 is in nM.

Observed log10(EC50) on Peroxisome proliferator-activated receptor gamma (Homo sapiens), entry CN(CCOc1ccc(CC2SC(=O)NC2=O)cc1)C(=O)CCCCC(S)CCSC(=O)CCC(=O)O (centres undefined) , equals 1.30

So the reported log10(EC50) for COC(=O)Cc1ccc(OCCCN(C)C(=O)CCCCC2CCSS2)c(Cl)c1 (centres undefined) , on Peroxisome proliferator-activated receptor gamma (Homo sapiens), turned out to be 4.27

The value of log10(EC50) recorded for CC(=O)SCCC(CCCCC(=O)N(C)CCOc1ccc(CC2SC(=O)NC2=O)cc1)SC(C)=O (centres undefined) when tested on Peroxisome proliferator-activated receptor gamma (Homo sapiens) reads 1.59

Form: item CC(=O)SC(CCCCC(=O)N(C)CCOc1ccc(CC2SC(=O)NC2=O)cc1)CCSC(=O)CN (centres undefined) ; test system Peroxisome proliferator-activated receptor gamma (Homo sapiens); log10(EC50): 2.29

Recorded log10(EC50) for CC(=O)SC(CCCCC(=O)N(C)CCOc1ccc(CC2SC(=O)NC2=O)cc1)CCSC(=O)CCC(=O)O (centres undefined) on Peroxisome proliferator-activated receptor gamma (Homo sapiens) was 2.18

Fill in: Peroxisome proliferator-activated receptor gamma (Homo sapiens) log10(EC50) for CN(CCOc1ccc(CC2SC(=O)NC2=O)cc1)C(=O)CCCCC(CCSC(=O)CCC(=O)O)SC(=O)CCC(=O)O (centres undefined) = 1.90

# lookup: O=C(CCCCC1CCSS1)NCCOc1ccc(CC2SC(=O)NC2=O)cc1 (centres undefined) on Peroxisome proliferator-activated receptor gamma (Homo sapiens), log10(EC50) = 4.00

Field log10(EC50) (Peroxisome proliferator-activated receptor gamma (Homo sapiens)), entry CN(CCOc1ccc(CC2SC(=O)NC2=O)cc1)C(=O)CCCCC1CCSS1 (centres undefined) : 1.18

Record for CN(CCOc1ccc(CC2SC(=O)NC2=O)cc1)C(=O)CCCCC(CCSC(=O)CN)SC(=O)CN.Cl.Cl (centres undefined) under target or system Peroxisome proliferator-activated receptor gamma (Homo sapiens): log10(EC50) reported as 1.78

The molecule CN(CCOc1ccc(CC2SC(=O)NC2=O)cc1)C(=O)CCCCC(S)CCS (centres undefined) , tested on Peroxisome proliferator-activated receptor gamma (Homo sapiens), showed log10(EC50) of 1.88

# lookup: CN(CCCOc1ccc(CC(=O)O)cc1Cl)C(=O)CCCCC1CCSS1 (centres undefined) on Peroxisome proliferator-activated receptor gamma (Homo sapiens), log10(EC50) = 4.09

----------
# ASSAY NAME: Solubility in water
# Format: physicochemical
READOUT: solubility
The reply must contain the numeric value and, after it, the unit.

Summary for this compound, CN(CCOc1ccc(CC2SC(=O)NC2=O)cc1)C(=O)CCCCC1CCSS1 (stereo unspecified) : solubility is 39 µg/mL
